measured.endpoint: melting point (°C)

a = OC1CSC(Oc2cncc(-c3ncccc3Cl)c2)C(O)C1O (stereo not given)
b = CNC(=S)NCCSCc1ncccc1N
melting point comparison. Which is larger, a or b ? Provide the label of your selected option as the answer.
a

* * *

Measured melting point, listed per entry.

Here is how some molecules turned out for melting point.
{"molecule": "CCOC(=O)CC(C)NC(=O)c1ccc(N2CCN(c3ccncc3)CC2)cc1 (centres undefined)", "measured.endpoint": "melting point", "data.value": "130 to 132 °C"}
{"molecule": "O=C(OCc1ccccc1)N1C[C@@H](O)[C@H](Oc2cccc(Cl)c2Cl)C1 (relative stereo)", "measured.endpoint": "melting point", "data.value": "130 to 132 °C"}
{"molecule": "CC(C)(O)c1cc(Br)cnc1N", "measured.endpoint": "melting point", "data.value": "107 to 108 °C"}
{"molecule": "CS(=O)(=O)c1ccc(-c2nc(C(F)(F)F)nc(Cl)c2-c2ccccc2)cc1", "measured.endpoint": "melting point", "data.value": "156 to 159 °C"}

Notebook: CC(C)(C)NCC(O)COc1cccc2[nH]c(=S)[nH]c12 (centres undefined) , melting point read as 214 to 216 °C

Notebook: `Cc1cc(C(=O)Nc2ccc(OCC(C)(C)C)c(C#N)c2)n(-c2ccc(F)cc2)n1` , melting point read as 165 °C

These data points were gathered from a melting point compilation (Tetko et al.; mined from patent text by program, amines drawn as free bases though some values may be those of a salt).
